Measured Dmax accompanies every entry in the list below.
- tgt: UniProt:P24941
- method-description: CDK2 NanoBiT assay (HiBiT-tagged CDK2 degradation)
- Assay type: cell-based
- assay-conditions: HEK293, HEK293 clonal line, C-terminal HiBiT tag on CDK2, LgBiT; 24 hours

Please review the following examples before continuing.
Given item Cc1ccc(-c2nnc(NC3CN(c4cc(F)c(C5CCC(=O)NC5=O)c(F)c4)C3)o2)cc1 (stereo not shown) [Compound 99] , the value recorded as its Dmax is > 80%

Given item O=C1CCC(c2c(F)cc(N3CC(NC(=O)OC4CN(C(=O)N5CCc6ccccc65)C4)C3)cc2F)C(=O)N1 (stereo not shown) [Compound 9] , the value recorded as its Dmax is > 80%

Given item COc1c(N2CC(Nc3nnc(C4CC5(CCC5)C4)o3)C2)ccc(C2CCC(=O)NC2=O)c1Cl (stereo not shown) [Compound 91] , the value recorded as its Dmax is > 80%

***
Given item CN(C(=O)N1CC(OC(=O)NC2(C)CN(c3cc(F)c(C4CCC(=O)NC4=O)c(F)c3)C2)C1)C1CC1 (stereo not shown) [Compound 12] , the value recorded as its Dmax is 50 to 80%
